// values below are reported IC50
- System: BC1 cell line
- Procedure Text: SANGER: Inhibition of human BC-1 cell growth in a cell viability assay.
- Format: functional, cell-based

# Compound, IC50
records = [
    ("C/C(O)=C(\\C#N)C(=O)Nc1cc(Br)ccc1Br", "> 16000 nM"),
    ("C/C=C(/C)C(=O)O[C@H]1C(C)=C2[C@H]([C@@H]1OC(=O)CCCCCCC)[C@@](C)(OC(C)=O)C[C@H](OC(=O)CCC)[C@@]1(O)[C@H]2OC(=O)[C@@]1(C)O", "23.2 nM"),
    ("CC(O)(CS(=O)(=O)c1ccc(F)cc1)C(=O)Nc1ccc(C#N)c(C(F)(F)F)c1 (centres undefined) [BICALUTAMIDE]", "> 1020 nM"),
]

// switching to the query compound
Req: Requested field: IC50. Item: Cc1nc(Nc2ncc(C(=O)Nc3c(C)cccc3Cl)s2)cc(N2CCN(CCO)CC2)n1
Resp: > 1280 nM

* * *

- Tested on: RPMI 8402
- Procedure Text: SANGER: Inhibition of human RPMI-8402 cell growth in a cell viability assay.
- Type: functional, cell-based
// values below are reported pIC50
Value format note: pIC50 is -log10 of concentration (mol/L); just state the number.

Req: Find pIC50 (RPMI 8402) for the entry Cc1n[nH]c2ccc(-c3cncc(OC[C@@H](N)Cc4c[nH]c5ccccc45)c3)cc12
Resp: 6.74

Req: Find pIC50 (RPMI 8402) for the entry Fc1cc(-c2cc[nH]/c(=N/c3ccc(-n4cnc(N5CCOCC5)n4)cc3)n2)cc(N2CCOCC2)c1
Resp: 6.22

* * *

- Tested on: HuTu80;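 also: growth inhibition of HuTu80 human cells, determined with a cell viability readout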
- Procedure Text: cells
- Assay type: functional, cell-based, HUTU-80
- Assay Setup: Homo sapiens
- Description: SANGER: Inhibition of human HUTU-80 cell growth in a cell viability assay.
pIC50: −log10 of the molar value.
// values below are reported pIC50

# Compound, Experimental Endpoint, Experimental Value
rows = [
    ("CC[C@@]1(O)C(=O)OCc2c1cc1n(c2=O)Cc2cc3ccccc3nc2-1 [CAMPTOTHECIN]", "pIC50", 8.47),
]

Req: Requested field: pIC50. Item: Fc1cc(-c2cc[nH]/c(=N/c3ccc(-n4cnc(N5CCOCC5)n4)cc3)n2)cc(N2CCOCC2)c1
Resp: 5.37

Req: Requested field: pIC50. Item: NC(=O)c1ncn([C@@H]2O[C@H](COP(=O)(O)O)[C@@H](O)[C@H]2O)c1N
Resp: < 2.70

Req: Requested field: pIC50. Item: CC(O)(CS(=O)(=O)c1ccc(F)cc1)C(=O)Nc1ccc(C#N)c(C(F)(F)F)c1 (configuration not stated) [BICALUTAMIDE]
Resp: < 5.99

* * *

- Tested on: Ramos-2G6-4C10;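 also: growth inhibition of the cell line, measured by a cell viability read-out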
- Procedure Text: cells
- Format: functional, cell-based
- Assay Setup: Homo sapiens
- Description: SANGER: Inhibition of human Ramos-2G6-4C10 cell growth in a cell viability assay.
// values below are reported IC50
Return type: number; implicit unit µM.

# Structure Smiles String, Experimental Endpoint, Unit Symbol, Experimental Value
records = [
    ("CC[C@@]1(O)C(=O)OCc2c1cc1n(c2=O)Cc2cc3ccccc3nc2-1", "IC50", "µM", 0.0105),
]

// switching to the query compound
Req: Requested field: IC50. Item: CC[C@]1(O)C[C@@H]2CN(CCc3c([nH]c4ccccc34)[C@@](C(=O)OC)(c3cc4c(cc3OC)N(C)[C@H]3[C@@](O)(C(=O)OC)[C@H](OC(C)=O)[C@]5(CC)C=CCN6CC[C@]43[C@@H]65)C2)C1
Resp: 0.00155

* * *

- Tested on: MZ2-MEL;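 also: growth inhibition of MZ2-MEL cells read out with a cell viability assay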
- Procedure Text: cells
- Assay type: functional, cell-based
- Assay Setup: Homo sapiens
- Description: SANGER: Inhibition of human MZ2-MEL cell growth in a cell viability assay.
Experimental Endpoint: pIC50
Value format note: pIC50 is -log10 of concentration (mol/L); just state the number.

# Structure Smiles String, Study System, pIC50
data = [
    ("Cc1ccc(NC(=O)c2cccc(C(C)(C)C#N)c2)cc1Nc1ccc2ncn(C)c(=O)c2c1", "MZ2-MEL", 6.10),
    ("C[C@]12O[C@H](C[C@]1(O)CO)n1c3ccccc3c3c4c(c5c6ccccc6n2c5c31)CNC4=O", "MZ2-MEL", 6.63),
    ("CC[C@]1(O)C[C@@H]2CN(CCc3c([nH]c4ccccc34)[C@@](C(=O)OC)(c3cc4c(cc3OC)N(C)[C@H]3[C@@](O)(C(=O)OC)[C@H](OC(C)=O)[C@]5(CC)C=CCN6CC[C@]43[C@@H]65)C2)C1", "MZ2-MEL", 7.22),
]

Req: Requested field: pIC50. Item: C/C=C(/C)C(=O)O[C@H]1C(C)=C2[C@H]([C@@H]1OC(=O)CCCCCCC)[C@@](C)(OC(C)=O)C[C@H](OC(=O)CCC)[C@@]1(O)[C@H]2OC(=O)[C@@]1(C)O
Resp: 8.75

Req: Requested field: pIC50. Item: Fc1cc(-c2cc[nH]/c(=N/c3ccc(-n4cnc(N5CCOCC5)n4)cc3)n2)cc(N2CCOCC2)c1
Resp: 6.39

Req: Requested field: pIC50. Item: Cn1c(=O)n(-c2ccc(C(C)(C)C#N)cc2)c2c3cc(-c4cnc5ccccc5c4)ccc3ncc21
Resp: 7.40

* * *

// values below are reported IC50
- Tested on: MFH-ino;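 also: growth inhibition of human MFH-ino cells, read out by a cell viability assay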
- Procedure Text: cells
- Type: functional, cell-based
- Assay Setup: Homo sapiens
- Description: SANGER: Inhibition of human MFH-ino cell growth in a cell viability assay.

Consider the reported IC50 for these compounds:
# Compound, IC50
rows = [
    ("Cc1nc(Nc2ncc(C(=O)Nc3c(C)cccc3Cl)s2)cc(N2CCN(CCO)CC2)n1 [DASATINIB]", "0.0472 µM"),
    ("CCNc1cc(N[C@H]2CC[C@@H](O)CC2)nc(Nc2ccc3c(ccn3Cc3ccccc3)c2)n1", "> 5.12 µM"),
    ("COc1cc(Nc2c(C#N)cnc3cc(OCCCN4CCN(C)CC4)c(OC)cc23)c(Cl)cc1Cl [BOSUTINIB]", "> 2 µM"),
    ("O=c1cc(N2CCOCC2)oc2c(-c3cccc4c3sc3ccccc34)cccc12", "> 2 µM"),
    ("C/C=C(/C)C(=O)O[C@H]1C(C)=C2[C@H]([C@@H]1OC(=O)CCCCCCC)[C@@](C)(OC(C)=O)C[C@H](OC(=O)CCC)[C@@]1(O)[C@H]2OC(=O)[C@@]1(C)O [THAPSIGARGIN]", "0.00132 µM"),
    ("Cc1ccc(NC(=O)c2cccc(C(C)(C)C#N)c2)cc1Nc1ccc2ncn(C)c(=O)c2c1", "> 4 µM"),
    ("C/C(O)=C(\\C#N)C(=O)Nc1cc(Br)ccc1Br", "> 16 µM"),
    ("CC[C@]1(O)C[C@@H]2CN(CCc3c([nH]c4ccccc34)[C@@](C(=O)OC)(c3cc4c(cc3OC)N(C)[C@H]3[C@@](O)(C(=O)OC)[C@H](OC(C)=O)[C@]5(CC)C=CCN6CC[C@]43[C@@H]65)C2)C1 [VINBLASTINE]", "> 0.1 µM"),
]

// switching to the query compound
Req: Requested field: IC50. Item: O=c1[nH]c2ccccc2n1C1CCN(Cc2ccc(-c3nc4cc5[nH]cnc5cc4nc3-c3ccccc3)cc2)CC1
Resp: > 2.56 µM

* * *

- Test system: HuP-T3
- Procedure Text: cells
- Assay type: functional, cell-based
- Assay Setup: Homo sapiens
- Description: SANGER: Inhibition of human HuP-T3 cell growth in a cell viability assay.
pIC50: −log10 of the molar value.
// values below are reported pIC50

Consider the reported pIC50 for these compounds:
# Structure Smiles String, pIC50
records = [
    ("O=c1[nH]c2ccccc2n1C1CCN(Cc2ccc(-c3nc4cc5[nH]cnc5cc4nc3-c3ccccc3)cc2)CC1", "< 5.59"),
    ("C[C@]1(c2nc3c(C(N)=O)cccc3[nH]2)CCCN1", "< 5.30"),
    ("C/C=C(/C)C(=O)O[C@H]1C(C)=C2[C@H]([C@@H]1OC(=O)CCCCCCC)[C@@](C)(OC(C)=O)C[C@H](OC(=O)CCC)[C@@]1(O)[C@H]2OC(=O)[C@@]1(C)O", 7.74),
]

Req: Requested field: pIC50. Item: CC(=O)c1c(C)c2cnc(Nc3ccc(N4CCNCC4)cn3)nc2n(C2CCCC2)c1=O
Resp: < 5.40

* * *

// values below are reported IC50
- Test system: NCI-H1092
- Procedure Text: cells
- Format: functional, cell-based
- Assay Setup: Homo sapiens
- Description: SANGER: Inhibition of human NCI-H1092 cell growth in a cell viability assay.

Consider the reported IC50 for these compounds:
# Compound, IC50
rows = [
    ("COc1cc(Nc2c(C#N)cnc3cc(OCCCN4CCN(C)CC4)c(OC)cc23)c(Cl)cc1Cl", "> 2000 nM"),
    ("CC[C@]1(O)C[C@@H]2CN(CCc3c([nH]c4ccccc34)[C@@](C(=O)OC)(c3cc4c(cc3OC)N(C)[C@H]3[C@@](O)(C(=O)OC)[C@H](OC(C)=O)[C@]5(CC)C=CCN6CC[C@]43[C@@H]65)C2)C1", "> 100 nM"),
    ("Fc1cc(-c2cc[nH]/c(=N/c3ccc(-n4cnc(N5CCOCC5)n4)cc3)n2)cc(N2CCOCC2)c1", "1760 nM"),
    ("Cn1cc(/C=C2\\C(=O)Nc3cccnc32)c2ccccc21", "> 2000 nM"),
    ("Cc1nc(Nc2ncc(C(=O)Nc3c(C)cccc3Cl)s2)cc(N2CCN(CCO)CC2)n1", "> 1280 nM"),
    ("CCn1c(-c2nonc2N)nc2cnc(Oc3cccc(NC(=O)c4ccc(OCCN5CCOCC5)cc4)c3)cc21 [GSK-269962A]", "> 2500 nM"),
]

// switching to the query compound
Req: Requested field: IC50. Item: CCCS(=O)(=O)Nc1ccc(F)c(C(=O)c2c[nH]c3ncc(Cl)cc23)c1F
Resp: > 10000 nM

FYI, the data here is from ChEMBL document CHEMBL1201861.
